Listing: 1 µM (% DMSO) of selected molecules
# System: expanded OPCs
# TEST_DESCRIPTION: cells
# CONDITIONS_USED: alamarBlue viability of expanded OPCs, compound at 1 µM, relative to DMSO control
Give the value, in units of % DMSO, as a plain number.

- NS(=O)(=O)c1cc2c(cc1Cl)N=CNS2(=O)=O [Chlorothiazide]: 90.2
- CN(C)[C@@H]1C(O)=C(C(N)=O)C(=O)[C@@]2(O)C(O)=C3C(=O)c4c(O)cccc4[C@@](C)(O)[C@H]3[C@H](O)[C@@H]12 [Oxytetracycline]: 97.7
- O=C(O)c1cccnc1 [Niacin]: 94.0

In the following, a different molecule is considered.
So, CC(=O)[C@@]1(O)CC[C@H]2[C@@H]3C[C@H](C)C4=CC(=O)C=C[C@]4(C)[C@@]3(F)[C@@H](O)C[C@@]21C [Fluorometholone] ? Its 1 µM (% DMSO) was 98.3
